Recorded IC50 values for a group of compounds are listed next.
study-target: dihydrolipoamide acyltransferase (DlaT) (Mycobacterium tuberculosis)
Sequence (P9WIS7 whole entry): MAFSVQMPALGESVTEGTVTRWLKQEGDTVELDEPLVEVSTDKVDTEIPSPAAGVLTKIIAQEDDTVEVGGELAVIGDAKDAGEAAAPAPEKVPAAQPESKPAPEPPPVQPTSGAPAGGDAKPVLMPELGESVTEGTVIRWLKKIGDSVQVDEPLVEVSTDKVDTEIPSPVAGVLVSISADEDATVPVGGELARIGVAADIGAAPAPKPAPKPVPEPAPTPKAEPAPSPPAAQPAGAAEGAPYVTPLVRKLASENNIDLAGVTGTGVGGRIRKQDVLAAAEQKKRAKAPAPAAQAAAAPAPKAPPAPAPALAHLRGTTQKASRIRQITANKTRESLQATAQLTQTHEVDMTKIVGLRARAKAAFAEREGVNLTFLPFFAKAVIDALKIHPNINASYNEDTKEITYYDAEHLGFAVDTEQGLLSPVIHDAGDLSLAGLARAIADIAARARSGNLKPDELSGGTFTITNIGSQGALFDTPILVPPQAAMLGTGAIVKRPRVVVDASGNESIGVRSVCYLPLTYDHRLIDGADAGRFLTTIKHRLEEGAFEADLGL
experiment: DlaT inhibition (Dlat IC50); DTNB peroxidase assay with Lpd, DlaT and AhpD
Format: biochemical
assay-setup: Dlat IC50 category

Solved entries (count: 7):
compound="Cc1ccc(-c2cccc(C=C3SC(=S)N(C4CCCC(C(=O)O)C4)C3=O)c2)cc1 (centres unmarked)" reading="41 to 80 µM"
compound=CN(C)c1ccc(-c2ccc(C=C3SC(=S)N(Nc4ccccc4C(=O)O)C3=O)o2)cc1 reading="11 to 40 µM"
compound=O=C(O)CN1C(=O)C(=Cc2ccc(-c3cc(C(F)(F)F)ccc3Cl)o2)SC1=S reading="< 10 µM"
compound="O=C(O)C(c1ccccc1)N1C(=O)C(=Cc2ccc(-c3ccc(O)cc3)o2)SC1=S (centres unmarked)" reading="11 to 40 µM"
compound="O=C(O)C(Cc1ccc(O)c(O)c1)N1C(=O)C(=Cc2ccc(-c3cc(C(F)(F)F)ccc3Cl)o2)SC1=S (centres unmarked)" reading="< 10 µM"
compound=O=C(O)c1ccccc1NN1C(=O)C(=Cc2ccc(-c3ccc(F)cc3F)o2)SC1=S reading="< 10 µM"
compound=O=C(O)CCN1C(=O)C(=Cc2ccc(-c3ccc(-c4ccccc4)cc3)o2)SC1=S reading="11 to 40 µM"

Next, consider the following compound.
Readout IC50 for O=C(O)C(c1ccccc1)N1C(=O)C(=Cc2ccc(-c3ccc(Cl)cc3Cl)o2)SC1=S (centres unmarked) , test system dihydrolipoamide acyltransferase (DlaT) (Mycobacterium tuberculosis), was < 10 µM
